The values you see were collected from patent US20210198277A1.

Target: EHMT1 (Homo sapiens, UniProt Q9H9B1)
Sequence (Q9H9B1 1-1298): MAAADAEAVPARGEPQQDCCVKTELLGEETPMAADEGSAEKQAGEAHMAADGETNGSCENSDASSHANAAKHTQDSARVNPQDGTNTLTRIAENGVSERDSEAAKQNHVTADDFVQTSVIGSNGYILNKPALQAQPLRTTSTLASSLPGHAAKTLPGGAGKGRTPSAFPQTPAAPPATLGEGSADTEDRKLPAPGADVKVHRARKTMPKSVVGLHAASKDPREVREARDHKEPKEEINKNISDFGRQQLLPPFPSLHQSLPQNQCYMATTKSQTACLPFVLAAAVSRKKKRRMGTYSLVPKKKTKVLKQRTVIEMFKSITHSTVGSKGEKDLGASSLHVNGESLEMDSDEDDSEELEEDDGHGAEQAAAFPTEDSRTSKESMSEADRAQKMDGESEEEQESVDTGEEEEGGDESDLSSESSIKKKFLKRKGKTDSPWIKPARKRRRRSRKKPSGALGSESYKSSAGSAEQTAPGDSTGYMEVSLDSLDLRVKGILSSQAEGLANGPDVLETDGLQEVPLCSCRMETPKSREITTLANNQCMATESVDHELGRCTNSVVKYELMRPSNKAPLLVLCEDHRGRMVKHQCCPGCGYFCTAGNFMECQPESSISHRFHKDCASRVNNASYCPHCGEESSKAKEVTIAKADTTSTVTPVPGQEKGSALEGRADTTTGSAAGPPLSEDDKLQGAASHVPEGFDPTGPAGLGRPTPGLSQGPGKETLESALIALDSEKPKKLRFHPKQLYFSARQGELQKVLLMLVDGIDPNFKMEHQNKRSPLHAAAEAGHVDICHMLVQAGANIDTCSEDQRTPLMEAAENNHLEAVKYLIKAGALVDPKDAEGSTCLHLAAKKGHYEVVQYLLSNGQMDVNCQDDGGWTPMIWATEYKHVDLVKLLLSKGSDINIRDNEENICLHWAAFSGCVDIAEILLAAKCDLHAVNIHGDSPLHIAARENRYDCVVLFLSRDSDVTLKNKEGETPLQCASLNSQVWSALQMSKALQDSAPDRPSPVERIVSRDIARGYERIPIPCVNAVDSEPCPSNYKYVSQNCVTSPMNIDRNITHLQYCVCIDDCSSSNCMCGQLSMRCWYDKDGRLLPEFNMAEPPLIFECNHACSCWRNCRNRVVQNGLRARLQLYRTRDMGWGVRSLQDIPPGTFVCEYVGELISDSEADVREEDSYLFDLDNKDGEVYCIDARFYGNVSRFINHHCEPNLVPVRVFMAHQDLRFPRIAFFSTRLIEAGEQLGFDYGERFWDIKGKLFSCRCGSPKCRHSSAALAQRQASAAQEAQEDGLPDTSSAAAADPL
Test: EHMT1 enzyme assay on peptide substrate (EHMT1 PEP)
Format: biochemical
Conditions: Table II; read-out: EHMT1 PEP (IC50 μM)
property: IC50

# annotated cases, reported IC50 shown
INSERT INTO measurements (molecule, tgt, result) VALUES
  ('COc1ccc(Nc2nccc(NCc3ccc4nccn4c3)n2)cc1OCCCN1CCCC1 [Compound 191]', 'EHMT1 (Homo sapiens, UniProt Q9H9B1)', '< 0.1 µM'),
  ('CC(=O)N1CCC(CNc2ccnc(Nc3cccc(NC(=O)CCN4CCCC4)c3)n2)CC1 [Compound 114]', 'EHMT1 (Homo sapiens, UniProt Q9H9B1)', '> 10 µM'),
  ('COc1ccc(Nc2cccc3ncnn23)cc1OCCCN1CCCC1 [Compound 220]', 'EHMT1 (Homo sapiens, UniProt Q9H9B1)', '> 10 µM');

// each listed molecule needs a value for IC50
1. COCCCN(C)c1ccnc(Nc2ccc(OC)c(OCCCN3CCCC3)c2)n1 [Compound 143]
2. CCCCNc1ncc(C)c(NCC2CCNCC2)n1 [Compound 91]
3. CNc1nc(Nc2ccc(OC)c(OCCCN3CCCC3)c2)ncc1C#N [Compound 233]
4. CNc1cnnc(Nc2ccc(OC)c(OCCCN3CCCC3)c2)c1 [Compound 246]
5. COc1ccc(Nc2nccc(N3CCC(C)(O)CC3)n2)cc1OCCCN1CCCC1 [Compound 141]

// result
1 to 10 µM
1 to 10 µM
> 10 µM
0.1 to 1 µM
> 10 µM
